Biological target: 17β-hydroxysteroid dehydrogenase type 2 (17β-HSD type 2) (Homo sapiens)
Construct: expressed in transfected cells; host or cells: MCF-7
Assay: Inhibition of 17β-HSD type 2 in MCF-7 cells stably expressing the isoenzyme (tritium labeled estradiol conversion, HPLC)
Format: cell-based
Conditions: MCF7; 10 μM test compound; MCF-7 cells expressing 17β-HSD type 2; 2 nM tritium labeled estradiol; read-out: % Inhibition HSD2 10 μM
The entries below are paired with their reported inhibition at 10 µM.
API: value field is a number in %; no unit string.

Worked cases, inhibition at 10 µM given:
# query: inhibition at 10 µM of entry "O=c1c2c(nc(-c3ccccc3)n1Cc1ccccc1)sc1c(O)cccc12" 76.9

# query: inhibition at 10 µM of entry COc1cc(-c2nc3sc4c(O)cccc4c3c(=O)n2CC2CCCO2)c(Cl)c(OC)c1OC (centres unmarked) 36.8

# query: inhibition at 10 µM of entry COc1cc(-c2nc3sc4c(c3c(=O)n2Cc2ccccc2)CC(C)C(Br)C4=O)c(Br)c(OC)c1OC (centres unmarked) 5.7

# query: inhibition at 10 µM of entry "O=Cc1nc2c(c(=O)n1Cc1ccccc1)C1=C(CCCC1)S2(=O)=O" 18.7

# query: inhibition at 10 µM of entry "O=C1CCCc2c1sc1nc(-c3ccc(Br)s3)n(Cc3ccccc3)c(=O)c21" 16.6

Next:
# query: inhibition at 10 µM of entry COc1cc(-c2nc3sc4c(c3c(=O)n2Cc2ccccc2)C(C)CC(Br)C4=O)c(Br)c(OC)c1OC (centres unmarked) 19.9

# query: inhibition at 10 µM of entry "O=c1c2c3c(sc2nc(-c2ccccc2)n1Cc1ccccc1)CCCC3" 24.5

# query: inhibition at 10 µM of entry "Cc1nc2sc3c(c2c(=O)n1-c1ccccc1)CCC(Br)(Br)C3=O" 6.5

# query: inhibition at 10 µM of entry "COc1cc(-c2nc3sc4c(c3c(=O)n2Cc2ccco2)CCCC4=O)cc(OC)c1OC" 35.4

# query: inhibition at 10 µM of entry "COc1cc(-c2nc3sc4c(c3c(=O)n2Cc2ccccc2)CCC(C=O)=C4Cl)cc(OC)c1OC" 7.8

# query: inhibition at 10 µM of entry CCC(C)Cn1c(-c2cc(OC)c(OC)c(OC)c2Cl)nc2sc3c(c2c1=O)CCC(Cl)(Cl)C3=O (centres unmarked) 10.5

# query: inhibition at 10 µM of entry "CCSc1c(C=O)ccc2c1sc1nc(-c3ccc(OC)cc3)n(Cc3ccccc3)c(=O)c12" 15.1

----------
Target: 17β-hydroxysteroid dehydrogenase type 1 (17β-HSD type 1) (Homo sapiens, UniProt P14061)
Construct: expressed in transfected cells; host or cells: MCF-7
Sequence (P14061 1-328): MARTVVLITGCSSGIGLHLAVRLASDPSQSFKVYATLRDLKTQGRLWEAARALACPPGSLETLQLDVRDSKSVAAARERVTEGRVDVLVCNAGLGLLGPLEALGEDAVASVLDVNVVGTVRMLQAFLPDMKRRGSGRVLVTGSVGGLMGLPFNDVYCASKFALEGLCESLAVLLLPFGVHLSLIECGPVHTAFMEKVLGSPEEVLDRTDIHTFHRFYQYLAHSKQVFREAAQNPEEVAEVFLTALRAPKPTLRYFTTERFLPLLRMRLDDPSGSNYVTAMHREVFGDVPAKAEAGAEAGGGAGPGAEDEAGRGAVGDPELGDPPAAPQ
Test: Inhibition of 17β-HSD type 1 in MCF-7 cells stably expressing the isoenzyme (tritium labeled estrone conversion, HPLC)
Format: cell-based
Details: MCF7; 1 μM test compound; MCF-7 cells expressing 17β-HSD type 1; 2 nM tritium labeled estrone; read-out: % Inhibition HSD1 1 μM
The entries below are paired with their reported inhibition at 1 µM.
Include the unit right after the number.

Worked cases, inhibition at 1 µM given:
# query: inhibition at 1 µM of entry COc1cc(-c2nc3sc4c(OC(C)=O)cccc4c3c(=O)n2CC(C)C)c(Br)c(OC)c1OC [No. 118] 31%

# query: inhibition at 1 µM of entry CCC(C)Cn1c(-c2cc(OC)c(OC)c(OC)c2)nc2sc3c(c2c1=O)CCC(Br)C3=O (centres unmarked) [No. 127] 40.3%

# query: inhibition at 1 µM of entry COc1cc(-c2nc3sc4c(O)cccc4c3c(=O)n2Cc2ccc(Br)o2)cc(OC)c1OC [No. 122] 13.9%

# query: inhibition at 1 µM of entry COc1cc(-c2nc3sc4c(OC)cccc4c3c(=O)n2CC(C)C)cc(OC)c1OC [No. 136] 3.6%

# query: inhibition at 1 µM of entry CCCc1nc2sc3c(c2c(=O)n1Cc1ccc(Br)o1)CCC(Br)C3=O (centres unmarked) [No. 103] 16.2%

Next:
# query: inhibition at 1 µM of entry COc1cc(-c2nc3sc4c(c3c(=O)n2Cc2ccccc2)CC(C)C(Br)C4=O)c(Br)c(OC)c1OC (centres unmarked) [No. 689] 7.7%

# query: inhibition at 1 µM of entry COc1cc(-c2nc3sc4c(O)cccc4c3c(=O)n2Cc2ccccc2)c(Br)c(OC)c1OC [No. 49] 24.7%

# query: inhibition at 1 µM of entry COc1cc(-c2nc3sc4c(c3c(=O)n2Cc2ccccc2)C(C)CC(Br)C4=O)c(Br)c(OC)c1OC (centres unmarked) [No. 685] 16.6%

----------
The entries below are paired with their reported % Inhibition HSD2 10 μM.
Target: 17β-hydroxysteroid dehydrogenase type 2 (17β-HSD type 2) (Homo sapiens)
Construct: expressed in transfected cells; host or cells: MCF-7
Sequence (P37059 1-387): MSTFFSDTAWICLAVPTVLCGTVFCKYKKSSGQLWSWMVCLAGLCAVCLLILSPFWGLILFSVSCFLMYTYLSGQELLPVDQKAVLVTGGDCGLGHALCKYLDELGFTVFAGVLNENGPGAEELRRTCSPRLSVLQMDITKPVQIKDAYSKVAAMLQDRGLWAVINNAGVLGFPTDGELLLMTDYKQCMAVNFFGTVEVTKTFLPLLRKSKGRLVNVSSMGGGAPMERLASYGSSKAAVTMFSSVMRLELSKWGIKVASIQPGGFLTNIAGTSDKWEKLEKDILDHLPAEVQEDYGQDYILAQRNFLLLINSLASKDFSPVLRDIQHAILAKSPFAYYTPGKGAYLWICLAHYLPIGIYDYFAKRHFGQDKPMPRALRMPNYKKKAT
Test: Inhibition of 17β-HSD type 2 in MCF-7 cells stably expressing the isoenzyme (tritium labeled estradiol conversion, HPLC)
Type: cell-based
Conditions: 10 μM test compound; MCF-7 cells expressing 17β-HSD type 2; 2 nM tritium labeled estradiol
API: value field is a number in %; no unit string.

Worked cases, % Inhibition HSD2 10 μM given:
# query: % Inhibition HSD2 10 μM of entry "O=c1c2c(nc(Cc3ccccc3)n1CCc1cccs1)sc1c(O)cccc12" 36.9

# query: % Inhibition HSD2 10 μM of entry "CC(C)=Cc1nc2sc3c(O)cccc3c2c(=O)n1CCc1cccs1" 40.2

# query: % Inhibition HSD2 10 μM of entry CCCCC(CC)c1nc2sc3c(O)cccc3c2c(=O)n1CCc1ccccc1 (stereo not shown) 22.5

Next:
# query: % Inhibition HSD2 10 μM of entry CCCCC(CC)c1nc2sc3c(O)cccc3c2c(=O)n1CCc1cccs1 (stereo not shown) 26.4

# query: % Inhibition HSD2 10 μM of entry CCCCC(CC)c1nc2sc3c(O)cccc3c2c(=O)n1Cc1ccccc1 (stereo not shown) 57.6

# query: % Inhibition HSD2 10 μM of entry "O=c1c2c(nc(-c3ccc(F)cc3F)n1CCc1ccccc1)sc1c(O)cccc12" 19.9

# query: % Inhibition HSD2 10 μM of entry "CCCCn1c(CCC2CCCC2)nc2sc3c(O)cccc3c2c1=O" 20.1

----------
Target: 17β-hydroxysteroid dehydrogenase type 3 (17β-HSD type 3) (Homo sapiens, UniProt P37058)
Construct: expressed in transfected cells; host or cells: MCF-7
Sequence (P37058 whole entry): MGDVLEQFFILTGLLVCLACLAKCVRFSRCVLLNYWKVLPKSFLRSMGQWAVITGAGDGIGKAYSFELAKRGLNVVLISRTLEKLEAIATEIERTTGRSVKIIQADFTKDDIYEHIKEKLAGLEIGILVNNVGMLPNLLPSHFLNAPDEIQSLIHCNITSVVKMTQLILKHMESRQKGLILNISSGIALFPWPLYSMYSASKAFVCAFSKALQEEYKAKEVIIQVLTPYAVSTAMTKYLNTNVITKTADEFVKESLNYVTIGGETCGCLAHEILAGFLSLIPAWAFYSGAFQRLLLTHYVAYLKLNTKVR
Test: Inhibition of 17β-HSD type 3 in MCF-7 cells stably expressing the isoenzyme (tritium labeled androstenedione conversion, HPLC)
Type: cell-based
Conditions: MCF7; 10 μM test compound; MCF-7 cells expressing 17β-HSD type 3; 2 nM tritium labeled androstenedione; read-out: % Inhibition HSD3 10 μM
Quick rule: inhibition at 10 µM of at least 60% means 1 (yes), below that means 0 (no).

Consider the worked cases shown below.
Does the reported inhibition at 10 µM for "COCCn1c(-c2cccs2)nc2sc3c(c2c1=O)CCCC3" fall at or above the 60% mark? 0 (no)

Does the reported inhibition at 10 µM for "COc1cc(-c2nc3sc4c(OC(C)=O)cccc4c3c(=O)n2CC(C)C)c(Br)c(OC)c1OC" fall at or above the 60% mark? 0 (no)

Does the reported inhibition at 10 µM for "CCCc1nc2sc3c(OC(C)=O)cccc3c2c(=O)n1Cc1cc(Br)ccc1OC" fall at or above the 60% mark? 1 (yes)

Does the reported inhibition at 10 µM for CCC(C)Cn1c(-c2cc(OC)c(OC)c(OC)c2Cl)nc2sc3c(O)cccc3c2c1=O (stereo not drawn) fall at or above the 60% mark? 0 (no)

Does the reported inhibition at 10 µM for "COc1ccc(-c2nc3sc4c(c3c(=O)n2Cc2ccccc2)CCCC4)cc1" fall at or above the 60% mark? 0 (no)

Next:
Does the reported inhibition at 10 µM for "COc1ccc(-c2nc3sc4c(c3c(=O)n2Cc2ccccc2)CCC(C=O)=C4Cl)cc1" fall at or above the 60% mark? 1 (yes)

Does the reported inhibition at 10 µM for COc1cc(-c2nc3sc4c(O)cccc4c3c(=O)n2CC2CCCO2)c(Cl)c(OC)c1OC (stereo not drawn) fall at or above the 60% mark? 1 (yes)

Does the reported inhibition at 10 µM for "COCc1nc2sc3c(c2c(=O)n1-c1ccccc1)CCCC3" fall at or above the 60% mark? 0 (no)
